Recorded Growth Percent MDA-MB-468 by entry
Test system: MDA-MB-468
Assay: NCI one-dose screening, breast cancer MDA-MB-468
Type: cell-based, human
Conditions: 10 μM
Report the value in % with no unit label.

Compound: O=C1c2ccccc2C(=O)c2c1cc(Sc1ccccn1)c1nsnc21 [C58]
Unit annotation: %
Growth Percent MDA-MB-468: −80.08
//
Compound: O=C1c2ccccc2C(=O)c2c1cc(Sc1ccc(Cl)cc1)c1nsnc21 [C22]
Unit annotation: %
Growth Percent MDA-MB-468: 46.13
//
Compound: CSc1ccc(Sc2cc3c(c4nsnc24)C(=O)c2ccccc2C3=O)cc1 [C43]
Unit annotation: %
Growth Percent MDA-MB-468: 82.25
//
Compound: CCOc1cccc(Sc2cc3c(c4nsnc24)C(=O)c2ccccc2C3=O)c1 [C50]
Unit annotation: %
Growth Percent MDA-MB-468: 108.00
//
Compound: COc1cccc(Sc2cc3c(c4nsnc24)C(=O)c2ccccc2C3=O)c1 [C46]
Unit annotation: %
Growth Percent MDA-MB-468: 93.53
//
Compound: O=C1c2ccccc2C(=O)c2c1cc(N1CCSCC1)c1nsnc21 [C15]
Unit annotation: %
Growth Percent MDA-MB-468: 12.59

### Prompt Respond only with Growth Percent MDA-MB-468 recorded for O=C1c2ccccc2C(=O)c2c1ccc1nsnc21 [C1]
### Response −73.17

### Prompt Respond only with Growth Percent MDA-MB-468 recorded for COc1ccc(Sc2cc3c(c4nsnc24)C(=O)c2ccccc2C3=O)cc1 [C41]
### Response 112.95

### Prompt Respond only with Growth Percent MDA-MB-468 recorded for O=C1c2ccccc2C(=O)c2c1cc(Sc1ccccc1Br)c1nsnc21 [C27]
### Response −79.88

### Prompt Respond only with Growth Percent MDA-MB-468 recorded for O=C1c2ccccc2C(=O)c2c1cc(SCc1ccccc1)c1nsnc21 [C21]
### Response −85.29

###

System: 786-O
Test: NCI one-dose screening, renal cancer 786-O
Type: cell-based, human
Details: 10 μM
Recorded Growth Percent 786-0 by entry
Report the value in % with no unit label.

Recorded Growth Percent 786-0, per entry:
Chemical string: O=C1c2ccccc2C(=O)c2c1cc(Sc1ccccn1)c1nsnc21
Target of assay: 786-O
Parameter: Growth Percent 786-0
Observed: −96.82
//
Chemical string: COc1cccc(Sc2cc3c(c4nsnc24)C(=O)c2ccccc2C3=O)c1
Target of assay: 786-O
Parameter: Growth Percent 786-0
Observed: 102.97
//
Chemical string: CCSc1cc2c(c3nsnc13)C(=O)c1ccccc1C2=O
Target of assay: 786-O
Parameter: Growth Percent 786-0
Observed: 80.27
//
Chemical string: Cc1cccc(C)c1Sc1cc2c(c3nsnc13)C(=O)c1ccccc1C2=O
Target of assay: 786-O
Parameter: Growth Percent 786-0
Observed: 115.19
//
Chemical string: O=C1c2ccccc2C(=O)c2c1cc(Nc1ccc(Cl)cc1)c1nsnc21
Target of assay: 786-O
Parameter: Growth Percent 786-0
Observed: 95.95

As a next step, examine the compound that follows.
### Prompt Respond only with Growth Percent 786-0 recorded for O=C1c2ccccc2C(=O)c2c1cc(N1CCSCC1)c1nsnc21
### Response 120.26

###

Recorded Growth Percent (10 μM) by entry
System: OVCAR-4
Assay: NCI one-dose screening, ovarian cancer OVCAR-4
Type: cell-based, human
Conditions: OVCAR-4, 10 μM
Report the value in % with no unit label.

Recorded Growth Percent (10 μM), per entry:
Chemical string: CC(C)Sc1cc2c(c3nsnc13)C(=O)c1ccccc1C2=O
Growth Percent (10 μM), %: −100.00

Chemical string: O=C1c2ccccc2C(=O)c2c1cc(N1CCCC1)c1nsnc21
Growth Percent (10 μM), %: 77.50

Chemical string: CN(C)CCNc1cc2c(c3nsnc13)C(=O)c1ccccc1C2=O
Growth Percent (10 μM), %: −71.27

As a next step, examine the compound that follows.
### Prompt Respond only with Growth Percent (10 μM) recorded for Cc1ccc(Nc2cc3c(c4nsnc24)C(=O)c2ccccc2C3=O)cc1
### Response 31.44

###

System: HOP-62
Experiment: NCI one-dose screening, non-small cell lung cancer HOP-62
Assay type: cell-based, human
Settings: 10 μM
Parameter: Growth Percent HOP-62 (%)
Report the value in % with no unit label.

Molecule: CCOc1cccc(Sc2cc3c(c4nsnc24)C(=O)c2ccccc2C3=O)c1 [C50]
Growth Percent HOP-62 (%): 91.94
//
Molecule: O=C1c2ccccc2C(=O)c2c1cc(Sc1ccccc1Br)c1nsnc21 [C27]
Growth Percent HOP-62 (%): 4.88
//
Molecule: COc1ccc(Sc2cc3c(c4nsnc24)C(=O)c2ccccc2C3=O)cc1 [C41]
Growth Percent HOP-62 (%): 95.20

As a next step, examine the molecule that follows.
### Prompt Respond only with Growth Percent HOP-62 recorded for O=C1c2ccccc2C(=O)c2c1cc(Sc1cccc(Cl)c1)c1nsnc21 [C37]
### Response 42.12

###

Tested on: MDA, -MB-435
Assay: NCI one-dose screening, breast cancer MDA, -MB-435
Format: cell-based, human
Conditions: 10 μM; listed under Melanoma
Parameter: Growth Percent MDA-MB-435 (%)
Report the value in % with no unit label.

Chemical string: CCOc1cccc(Sc2cc3c(c4nsnc24)C(=O)c2ccccc2C3=O)c1
Growth Percent MDA-MB-435 / %: 106.07

### Prompt Respond only with Growth Percent MDA-MB-435 recorded for O=C1c2ccccc2C(=O)c2c1cc(Sc1ccccn1)c1nsnc21
### Response −80.50

###

System: SK-MEL-28
Experiment: NCI one-dose screening, melanoma SK-MEL-28
Format: cell-based, human
Settings: 10 μM
Parameter: Growth Percent SK-MEL-28 (%)
Report the value in % with no unit label.

Recorded Growth Percent SK-MEL-28, per entry:
Chemical string: CCSc1cc2c(c3nsnc13)C(=O)c1ccccc1C2=O
Growth Percent SK-MEL-28, %: −41.99

Chemical string: O=C1c2ccccc2C(=O)c2c1cc(SCc1ccc(Cl)cc1)c1nsnc21
Growth Percent SK-MEL-28, %: 95.35

Chemical string: COc1ccc(Sc2cc3c(c4nsnc24)C(=O)c2ccccc2C3=O)cc1
Growth Percent SK-MEL-28, %: 115.63

### Prompt Respond only with Growth Percent SK-MEL-28 recorded for O=C1c2ccccc2C(=O)c2c1cc(Sc1ccccc1Br)c1nsnc21
### Response 64.65

### Prompt Respond only with Growth Percent SK-MEL-28 recorded for O=C1c2ccccc2C(=O)c2c1cc(Sc1ccccc1)c1nsnc21
### Response 127.12

### Prompt Respond only with Growth Percent SK-MEL-28 recorded for O=C1c2ccccc2C(=O)c2c1cc(Sc1ccccn1)c1nsnc21
### Response 108.55

### Prompt Respond only with Growth Percent SK-MEL-28 recorded for O=C1c2ccccc2C(=O)c2c1cc(SCc1ccccc1)c1nsnc21
### Response 95.00

###

Parameter: melting point

Recorded melting point, per entry:
Chemical string: CC(C)(C)c1ccc(CSc2cc3c(c4nsnc24)C(=O)c2ccccc2C3=O)cc1
Parameter: melting point
Observed: 256 to 257 °C

Chemical string: Cc1ccc(Oc2cc3c(c4nsnc24)C(=O)c2ccccc2C3=O)cc1
Parameter: melting point
Observed: 244 to 245 °C

Chemical string: CCN(CC)c1cc2c(c3nsnc13)C(=O)c1ccccc1C2=O
Parameter: melting point
Observed: 204 to 205 °C

Chemical string: Cc1ccc(C)c(Sc2cc3c(c4nsnc24)C(=O)c2ccccc2C3=O)c1
Parameter: melting point
Observed: 243 to 244 °C

### Prompt Respond only with melting point recorded for O=C1c2ccccc2C(=O)c2c1cc(N1CCSCC1)c1nsnc21
### Response 219 to 220 °C

###

Tested on: UACC-62
Experiment: NCI one-dose screening, melanoma UACC-62
Format: cell-based, human
Details: UACC-62, 10 μM
Parameter: Growth Percent (10 μM)
In your response, the unit should come after the numeric value.

Chemical string: CC(C)Sc1cc2c(c3nsnc13)C(=O)c1ccccc1C2=O
Growth Percent (10 μM): −57.09%
//
Chemical string: CN(C)CCNc1cc2c(c3nsnc13)C(=O)c1ccccc1C2=O
Growth Percent (10 μM): −47.85%
//
Chemical string: O=C1c2ccccc2C(=O)c2c1cc(N1CCCC1)c1nsnc21
Growth Percent (10 μM): 95.64%

As a next step, examine the molecule that follows.
### Prompt Respond only with Growth Percent (10 μM) recorded for Cc1ccc(Nc2cc3c(c4nsnc24)C(=O)c2ccccc2C3=O)cc1
### Response 67.41%

###

Tested on: IGROV1
Assay: NCI one-dose screening, ovarian cancer IGROV1
Assay type: cell-based, human
Settings: 10 μM
Parameter: Growth Percent IGROV1 (%)
Report the value in % with no unit label.

Recorded Growth Percent IGROV1, per entry:
Compound: CCSc1cc2c(c3nsnc13)C(=O)c1ccccc1C2=O [C16]
Growth Percent IGROV1 [%]: −54.45
//
Compound: O=C1c2ccccc2C(=O)c2c1cc(Sc1cccc(Cl)c1)c1nsnc21 [C37]
Growth Percent IGROV1 [%]: −13.50
//
Compound: O=C1c2ccccc2C(=O)c2c1cc(Sc1ccccc1)c1nsnc21 [C19]
Growth Percent IGROV1 [%]: 84.4
//
Compound: COc1ccc(Sc2cc3c(c4nsnc24)C(=O)c2ccccc2C3=O)cc1 [C41]
Growth Percent IGROV1 [%]: 103.17
//
Compound: O=C1c2ccccc2C(=O)c2c1cc(Nc1ccc(Cl)cc1F)c1nsnc21 [C65]
Growth Percent IGROV1 [%]: 69.50

### Prompt Provide the reported Growth Percent IGROV1 (system: IGROV1) for O=C1c2ccccc2C(=O)c2c1cc(N1CCOCC1)c1nsnc21 [C10]
### Response 54.88

### Prompt Provide the reported Growth Percent IGROV1 (system: IGROV1) for COc1cccc(Sc2cc3c(c4nsnc24)C(=O)c2ccccc2C3=O)c1 [C46]
### Response 99.91

### Prompt Provide the reported Growth Percent IGROV1 (system: IGROV1) for CSc1ccc(Sc2cc3c(c4nsnc24)C(=O)c2ccccc2C3=O)cc1 [C43]
### Response 95.67

### Prompt Provide the reported Growth Percent IGROV1 (system: IGROV1) for O=C1c2ccccc2C(=O)c2c1cc(SCc1ccccc1)c1nsnc21 [C21]
### Response 43.88

### Prompt Provide the reported Growth Percent IGROV1 (system: IGROV1) for Cc1cccc(C)c1Sc1cc2c(c3nsnc13)C(=O)c1ccccc1C2=O [C55]
### Response 66.38

### Prompt Provide the reported Growth Percent IGROV1 (system: IGROV1) for O=C1c2ccccc2C(=O)c2c1cc(Nc1ccc(Cl)cc1)c1nsnc21 [C60]
### Response 55.18

### Prompt Provide the reported Growth Percent IGROV1 (system: IGROV1) for O=C1c2ccccc2C(=O)c2c1cc(Sc1ccc(Cl)cc1)c1nsnc21 [C22]
### Response 84.93
